Quick list: pIC50 per entry.
experimental_target: human recombinant COX2 (hCOX2) (UniProt P35354)
Sequence (P35354 1-604): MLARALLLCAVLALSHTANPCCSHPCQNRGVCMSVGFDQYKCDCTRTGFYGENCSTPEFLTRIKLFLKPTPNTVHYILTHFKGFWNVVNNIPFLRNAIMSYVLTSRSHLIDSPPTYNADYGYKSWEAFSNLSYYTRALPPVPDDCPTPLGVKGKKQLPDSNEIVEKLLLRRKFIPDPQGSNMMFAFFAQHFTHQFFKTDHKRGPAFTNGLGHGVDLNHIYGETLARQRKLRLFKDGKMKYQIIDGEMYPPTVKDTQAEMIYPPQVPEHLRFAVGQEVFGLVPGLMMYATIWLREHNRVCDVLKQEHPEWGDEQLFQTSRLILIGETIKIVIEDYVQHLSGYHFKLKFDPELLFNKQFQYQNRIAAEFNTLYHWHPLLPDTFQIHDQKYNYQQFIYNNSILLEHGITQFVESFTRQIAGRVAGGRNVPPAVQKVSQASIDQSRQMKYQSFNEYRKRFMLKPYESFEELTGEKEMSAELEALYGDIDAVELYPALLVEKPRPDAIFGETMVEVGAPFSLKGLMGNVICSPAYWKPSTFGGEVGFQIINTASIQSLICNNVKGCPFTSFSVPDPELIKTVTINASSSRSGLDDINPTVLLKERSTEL
assay_text: LCMS-based COX2 enzymatic inhibition assay (PGE2 quantification)
Type: biochemical
Set-up: COX2 2 minutes pge2/pge2d4 area ratio Avg; other: 2 minutes; readout pge2/pge2d4 area ratio; average; COX2 2 minutes pge2/pge2d4 area ratio Avg; LLE; average LLE; COX2 2 minutes pge2 area (counts) Avg; readout pge2 area (counts); other: 2 min; "ovine COX2 (oCOX2), human recombinant COX2 (hCOX2)"
condition_context: 2 minutes; readout pge2/pge2d4 area ratio; average; read-out: COX2 2 minutes pge2/pge2d4 area ratio Avg. IC50
pIC50 is a log-scale quantity: -log10 of the concentration expressed in molar.

CS(=O)(=O)c1ccc(-c2cccc(Nc3ccccc3)n2)cc1 [Compound 194] | 6.05

Qu. Report measured pIC50; entry is CS(=O)(=O)c1ccc(-n2ccc3ccc(/C(=N\O)c4cccs4)nc32)cc1 [Compound 187]
Ans. 6.20

Qu. Report measured pIC50; entry is CS(=O)(=O)c1ccc(-c2cccc(NCc3cc[nH]c3)n2)cc1 [Compound 185]
Ans. 6.21

Qu. Report measured pIC50; entry is CS(=O)(=O)c1ccc(-c2cncc(NCc3ccoc3)n2)cc1 [Compound 110]
Ans. 7.01

Qu. Report measured pIC50; entry is CS(=O)(=O)c1ccc(-c2cncc(OCc3nccs3)n2)cc1 [Compound 147]
Ans. 6.60

Qu. Report measured pIC50; entry is CS(=O)(=O)c1ccc(-c2cnc3ncn(Cc4cccs4)c3n2)cc1 [Compound 210]
Ans. 5.85

Qu. Report measured pIC50; entry is CS(=O)(=O)c1ccc(-c2nc(NCc3cccs3)ccc2S(C)(=O)=O)cc1 [Compound 265]
Ans. 5.32

Qu. Report measured pIC50; entry is CS(=O)(=O)c1ccc(-c2cc(F)cc(OCc3cccs3)n2)cc1 [Compound 6]
Ans. 8.20

Qu. Report measured pIC50; entry is COc1cnc(-c2ccc(S(C)(=O)=O)cc2)nc1OCc1cccs1 [Compound 123]
Ans. 6.88

Cited source: patent US20220348590A1
